B1: PBXIP1 (parent)
chain: EKQKQPRWREGTKDSHDPLPSWAE

# Variants of: B1
# assay_explanation: protein stability index of a GFP-peptide fusion (GPS, HEK-293T) (PSI 1-6); higher = more stable;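 also: lentivirally expressed fusions sorted by FACS into six bins by GFP to DsRed ratio, PSI derived from sequencing read proportions per bin multiplied by bin number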
# stated_conditions: c terminus: a fixed tail appended
The variants listed here are annotated with their protein stability index.
readout: protein stability index

> print(dat)
    residue.change  value.observed
 1            D17E            1.39
 2            G11I            1.69
 3            S21W            4.58
 4            P20M            1.31
 5            T12L            2.31
 6             W8D             3.2
 7             Q5R            2.57
 8             Q3N            2.58
 9             K2P            1.77
10             W8F            1.88
11            E24H            3.29
12            D14K            2.66
13             K2S            2.15
14            L19K            1.68
15            G11S            2.61
